Taken from the supplement of paper PMC3334620.

List of PBM E-score values.
- target_desc: Hmlalpha2 (UniProt P0CY09)
- Sequence: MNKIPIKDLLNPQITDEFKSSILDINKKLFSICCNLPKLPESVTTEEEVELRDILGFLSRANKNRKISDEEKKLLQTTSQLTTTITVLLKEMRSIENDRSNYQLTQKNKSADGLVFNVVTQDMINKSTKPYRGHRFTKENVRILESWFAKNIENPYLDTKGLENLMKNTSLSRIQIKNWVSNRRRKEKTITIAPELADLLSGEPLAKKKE
- test_name: PBM E-score (8-mer binding enrichment) (E-score (-0.5 to 0.5)); higher = stronger / more preferred TF binding
- condition_context: protein concentration: 200 nM; construct: GST-full length
In all, about 33,000 sequences were measured (“E-score (-0.5 to 0.5)”: median about -0.04, highest 2% from about 0.36 on). Many of the other results were omitted from the sample, so the highest values are more common in it than they were.
measured_parameter: PBM E-score

1) CATAAACA :: 0.384
2) AGTAAAAA :: 0.196
3) CGGAGCTA :: -0.0643
4) CAGCACCG :: -0.189
5) CTCCATCC :: -0.1
6) GCACACAA :: 0.155
7) GTACACAA :: 0.373
8) CTGCCAGA :: -0.232
9) CAGGAGCC :: -0.225
10) CGTAGAAA :: 0.31
11) TATAAACA :: 0.358

---

- target_desc: Hmlalpha2 (UniProt P0CY09)
- Sequence: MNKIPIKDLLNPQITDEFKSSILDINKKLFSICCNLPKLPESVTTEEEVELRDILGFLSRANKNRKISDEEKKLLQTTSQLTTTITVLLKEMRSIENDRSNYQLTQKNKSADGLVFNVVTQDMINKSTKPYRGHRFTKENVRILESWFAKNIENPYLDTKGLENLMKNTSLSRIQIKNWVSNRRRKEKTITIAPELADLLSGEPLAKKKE
- test_name: PBM E-score (8-mer binding enrichment) (E-score (-0.5 to 0.5)); higher = stronger / more preferred TF binding
- condition_context: protein concentration: 200 nM; construct: GST-full length
The full ranking holds about 33,000 sequences; the median of “E-score (-0.5 to 0.5)” is about -0.04, and the highest 2% start at about 0.36. This is one part of a sample in which the highest values are shown more often than they occur.
Decide using PBM E-score: a value greater than or equal to 0.2 is yes (1), a smaller one is no (0).

1. CTGTTGAA :: yes (1)
2. CTCACATA :: no (0)
3. ATACTGAT :: no (0)
4. CCCAATGC :: no (0)
5. GTTACATA :: yes (1)
6. GTTACAGA :: no (0)
7. GGAATCTA :: no (0)
8. CATGTGAA :: yes (1)
9. GAGATTCC :: no (0)
10. AGTCTAGG :: no (0)
11. CGAGGCAA :: no (0)
12. AGTAATAA :: yes (1)
13. CCATCTAC :: no (0)
14. ATGTTGAA :: yes (1)
15. CAGATCCA :: no (0)
16. CTTACAGA :: no (0)
17. GTTACTGA :: no (0)
18. ACCAGGAC :: no (0)
19. ATGTTGAC :: yes (1)
20. CGTAATAA :: yes (1)
21. ATGACGCC :: no (0)
22. GGTAATAA :: no (0)

---

- target_desc: Hmlalpha2 (UniProt P0CY09)
- Sequence: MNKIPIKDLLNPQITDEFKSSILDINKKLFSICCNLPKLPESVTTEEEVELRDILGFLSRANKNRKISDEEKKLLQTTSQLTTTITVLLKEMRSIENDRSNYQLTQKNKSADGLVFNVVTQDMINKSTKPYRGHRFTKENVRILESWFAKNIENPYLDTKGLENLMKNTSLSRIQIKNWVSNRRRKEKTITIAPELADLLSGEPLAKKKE
- test_name: PBM E-score (8-mer binding enrichment) (E-score (-0.5 to 0.5)); higher = stronger / more preferred TF binding
- condition_context: protein concentration: 200 nM; construct: GST-full length
Whole data set: some 33,000 sequences, median “E-score (-0.5 to 0.5)” near -0.04, cut for the highest 2% near 0.36. The sample holds the highest values, similar sequences and a random draw of the others, so the mix is not that of the screen.
Decide using PBM E-score: a value greater than or equal to 0.2 is TRUE, a smaller one is FALSE.

1) AAACACTC :: FALSE
2) AATCGTGA :: FALSE
3) ATGTTAAC :: TRUE
4) GTTACAAA :: TRUE
5) CTCACACA :: FALSE
6) ATGTTAGC :: TRUE
7) GATGAGCC :: FALSE
8) ACATGACG :: TRUE
9) AACACATC :: TRUE
10) AAACGTGT :: TRUE
11) TTGTTAAA :: TRUE
12) AAACACAC :: TRUE
13) AAACGTGG :: FALSE
14) AAACACGT :: TRUE
15) CTGTTAAC :: TRUE
16) GTCAGTAA :: FALSE
17) CACCGCCG :: FALSE
18) ACATGACT :: TRUE
19) GCCTGTAA :: TRUE
20) ATACCTCA :: FALSE
21) AGATTCTA :: FALSE
22) CGTAACGC :: FALSE
23) AATGCTCG :: FALSE
24) GCGTGTAC :: TRUE
25) AATCGTGC :: FALSE
26) ACGTGTAC :: TRUE
27) AATCGTGT :: TRUE
28) CGGGGCGC :: FALSE
29) ACCTAACT :: FALSE
30) AAACACGA :: TRUE
31) AAGCGTGG :: FALSE
32) CAACTGCG :: FALSE
33) TACACATA :: TRUE
34) ACACGTGG :: TRUE
35) AAACACCA :: FALSE
36) CTTACTCA :: FALSE
37) AAGCGTGA :: FALSE
38) ACGTGTGC :: FALSE
39) AAGTGTAC :: FALSE
40) CCTTCACA :: FALSE
41) CTTACACA :: TRUE
42) GGGTGTAC :: FALSE
43) AAGCGTGT :: TRUE
44) GACACATA :: TRUE
45) CTAGATCC :: FALSE

---

- target_desc: Hmlalpha2 (UniProt P0CY09)
- Sequence: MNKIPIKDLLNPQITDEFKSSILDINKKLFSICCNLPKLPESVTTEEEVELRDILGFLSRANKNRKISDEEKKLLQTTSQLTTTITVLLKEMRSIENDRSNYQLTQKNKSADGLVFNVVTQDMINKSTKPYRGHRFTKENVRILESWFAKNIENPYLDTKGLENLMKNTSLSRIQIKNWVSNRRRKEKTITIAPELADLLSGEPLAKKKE
- test_name: PBM E-score (8-mer binding enrichment) (E-score (-0.5 to 0.5)); higher = stronger / more preferred TF binding
- condition_context: protein concentration: 200 nM; construct: GST-full length
Whole data set: some 33,000 sequences, median “E-score (-0.5 to 0.5)” near -0.04, cut for the highest 2% near 0.36. The entries come from a sample that favours the highest values as a whole.
Decide using PBM E-score: a value greater than or equal to 0.2 is true, a smaller one is false.

1) GAGTAGAA :: false
2) GGTTGTAA :: true
3) AGTTGTAA :: true
4) ACATGGAA :: true
5) CTGTAGAA :: false
6) ATGTAGAA :: true
7) ACATGGAT :: true
8) CGTTGTAG :: true
9) GGTTGAAA :: false
10) ATGTAGGA :: true
11) ACATGGGA :: true
12) AATCTCCA :: false
13) AGTTGAAA :: false
14) AAGTAGAG :: false
15) GCTGTCCA :: false
16) CGTTGTAC :: true
17) ATGTAGGC :: false
18) ATGTAGAC :: true
19) GTGTAGAA :: true
20) CTGTAGAC :: false
21) ACATGGAG :: true
22) ACATGGGC :: true

---

- target_desc: Hmlalpha2 (UniProt P0CY09)
- Sequence: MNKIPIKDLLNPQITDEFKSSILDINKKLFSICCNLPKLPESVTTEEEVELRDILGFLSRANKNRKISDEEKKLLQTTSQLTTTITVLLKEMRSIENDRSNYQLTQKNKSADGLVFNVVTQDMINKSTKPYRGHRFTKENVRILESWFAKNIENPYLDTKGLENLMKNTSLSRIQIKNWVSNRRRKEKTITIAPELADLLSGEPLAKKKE
- test_name: PBM E-score (8-mer binding enrichment) (E-score (-0.5 to 0.5)); higher = stronger / more preferred TF binding
- condition_context: protein concentration: 200 nM; construct: GST-full length
The full ranking holds about 33,000 sequences; the median of “E-score (-0.5 to 0.5)” is about -0.04, and the highest 2% start at about 0.36. What follows is part of a selection rich in the highest values, with near analogues and random picks from the rest.
Decide using PBM E-score: a value greater than or equal to 0.2 is yes (1), a smaller one is no (0).

1. AAATGCTG :: yes (1)
2. AACATTAC :: yes (1)
3. AAATACAA :: yes (1)
4. CTTACACC :: no (0)
5. AAGTTATG :: yes (1)
6. CAATACAC :: yes (1)
7. AACTAGGG :: no (0)
8. ACATGCTG :: yes (1)
9. CTTACGCA :: yes (1)
10. ACATGCAA :: yes (1)
11. CTTACAAG :: yes (1)
12. AAATACAG :: no (0)
13. ATTGTACC :: no (0)
14. GCTGTACA :: no (0)
15. CACATTAG :: no (0)
16. ATTACAAA :: yes (1)
17. AGCAAGTC :: no (0)
18. GAAGCAAA :: no (0)
19. ACACACAA :: yes (1)
20. AGACACAT :: no (0)
21. AATATGCT :: no (0)
22. ATTACAGG :: yes (1)
23. ACACACAT :: yes (1)
24. CAATACAG :: no (0)
25. CTCACACC :: no (0)
